Tested on: Daphnia magna
Test: Acute toxicity assay against Daphnia magna
Details: 100 μM, 24 h exposure
Attribute: V, (%) percentage of viability of Daphnia magna
Write the number in % without appending the unit.

Please review the entries below; each comes with its answer.
Compound: C=CCNC([S-])=NN=Cc1ccccn1.C=CCNC([S-])=NN=Cc1ccccn1.[Cl-].[Co+3] [compound 6, [Co(L)2]Cl]
Display unit: %
Reading: 35.9
--
Compound: C=CCNC(=NN=Cc1ccccn1)[S][Cu][O]C(C)=O.C=CCNC(=NN=Cc1ccccn1)[S][Cu][O]C(C)=O.O.O.O.O [compound 4, [Cu2(L)2(CH3COO)2]·4H2O]
Display unit: %
Reading: 0.0
--
Compound: C=CCNC(=NN=Cc1ccccn1)[S][Cu][Br] [compound 3, [Cu(L)Br]]
Display unit: %
Reading: 0.0

Query :: Assign V, (%) percentage of viability of Daphnia magna to the following record: C=CCNC(=NN=Cc1ccccn1)[S][Cu][Cl] [compound 2, [Cu(L)Cl]]
Result :: 0.0

Query :: Assign V, (%) percentage of viability of Daphnia magna to the following record: C=CCNC(=S)NN=Cc1ccccn1.C=CCNC(=S)NN=Cc1ccccn1.O.[Cl-].[Cl-].[Ni+2] [compound 5, [Ni(HL)2]Cl2·H2O]
Result :: 87.2

* * *

Tested on: human leukemia HL-60 cell line
Assay: Antiproliferative activity (MTS and Resazurin assays), HL-60
Assay type: cell-based
Conditions: HL-60, 0.1 μM
Checkbox rule: Inhibition of cell proliferation, (%) lower than 20% = fulfilled; Inhibition of cell proliferation, (%) not lower than 20% = not fulfilled.

Query :: Please indicate whether the reported Inhibition of cell proliferation, (%) of C=CCNC(=NN=Cc1ccccn1)[S][Cu][Br] [compound 3, [Cu(L)Br]] is strictly below 20%.
Result :: not fulfilled

Query :: Please indicate whether the reported Inhibition of cell proliferation, (%) of C=CCNC(=NN=Cc1ccccn1)[S][Cu][Cl] [compound 2, [Cu(L)Cl]] is strictly below 20%.
Result :: not fulfilled

Query :: Please indicate whether the reported Inhibition of cell proliferation, (%) of C=CCNC(=NN=Cc1ccccn1)[S][Cu][O]C(C)=O.C=CCNC(=NN=Cc1ccccn1)[S][Cu][O]C(C)=O.O.O.O.O [compound 4, [Cu2(L)2(CH3COO)2]·4H2O] is strictly below 20%.
Result :: not fulfilled

Query :: Please indicate whether the reported Inhibition of cell proliferation, (%) of C=CCNC([S-])=NN=Cc1ccccn1.C=CCNC([S-])=NN=Cc1ccccn1.[Cl-].[Co+3] [compound 6, [Co(L)2]Cl] is strictly below 20%.
Result :: fulfilled

Query :: Please indicate whether the reported Inhibition of cell proliferation, (%) of C=CCNC(=S)NN=Cc1ccccn1.C=CCNC(=S)NN=Cc1ccccn1.O.[Cl-].[Cl-].[Ni+2] [compound 5, [Ni(HL)2]Cl2·H2O] is strictly below 20%.
Result :: not fulfilled

* * *

Test: Acute toxicity assay against Daphnia magna
Conditions: Daphnia magna, in vivo, other: exposure in the test medium (immersion), pH 7.5
Readout: viability at 24 h, 1 µM (%)
Write the number in % without appending the unit.

Query :: Assign viability at 24 h, 1 µM to the following record: COc1cccc2c1C(=O)c1c(O)c3c(c(O)c1C2=O)C[C@@](O)(C(=O)CO)C[C@@H]3O[C@H]1C[C@H](N)[C@H](O)[C@H](C)O1 [Doxorubicin, doxorubicin, reference compound]
Result :: 76.9
